Give Plant response rating, Nutsedge for every item shown.
- Test system: purple nutsedge
- ASSAY_COMMENT: Test B pre/postemergence purple nutsedge
- Type: in vivo, Cyperus rotundus
- MEASUREMENT_PARAMETERS: Preemergence, Rate 500 g/ha; scale of 0 to 10 where 0 is no effect and 10 is complete control
- Protocol: […] At the same time, these crop and weed species were also treated with postemergence applications of test chemicals formulated in the same manner. […] Treated plants and controls were maintained in a greenhouse for twelve to sixteen days, after which all species were compared to controls and visually evaluated. […]

Some entries whose results are on file:
{"columns": ["COMPOUND", "Plant response rating, Nutsedge"],
 "data": [
  ["CCN(C(=O)n1oc(=O)n(C2CC2)c1=O)C1CCCCC1", 0],
  ["CC(C)N(C(=O)n1oc(=O)n(CC(C)[N+](=O)[O-])c1=O)c1ccc(F)cc1F (stereo not shown)", 0],
  ["COC(C)n1c(=O)on(C(=O)N(c2ccc(F)cc2F)C(C)C)c1=O (stereo not shown)", 2]
]}

What does the data say about its Plant response rating, Nutsedge? Entry: CC(C)N(C(=O)n1oc(=O)n(CCF)c1=O)c1ccccc1 6

---

Give Plant response rating, Bedstraw for every item shown.
- System: bedstraw
- ASSAY_COMMENT: Test B pre/postemergence bedstraw
- Format: in vivo, Galium aparine
- MEASUREMENT_PARAMETERS: Preemergence, Rate 250 g/ha; scale of 0 to 10 where 0 is no effect and 10 is complete control
Answers are plain numbers.

{"columns": ["SMILES_ENTRY", "Plant response rating, Bedstraw"],
 "data": [
  ["COc1cccc(C)c1-n1c(=O)on(C(=O)N(c2ccc(F)cc2)C(C)C)c1=O", 0],
  ["CC(C)N(C(=O)n1oc(=O)n(Cc2ccccc2)c1=O)c1ccc(Cl)cc1", 3],
  ["CC(C)N(C(=O)n1oc(=O)n(-c2ccccc2OC(F)(F)F)c1=O)c1ccc(F)cc1", 0]
]}

# per-item lookup of Plant response rating, Bedstraw; items listed below
1. Cc1ccccc1Cn1c(=O)on(C(=O)N(C)c2ccccc2)c1=O
2. Cc1ccc(-n2c(=O)on(C(=O)N(c3ccc(F)cc3F)C(C)C)c2=O)c(C)c1

[0, 0]

---

Give Velvetleaf plant response rating for every item shown.
- Tested on: velvetleaf
- ASSAY_COMMENT: Test B pre/postemergence velvetleaf
- Assay type: in vivo, Abutilon theophrasti
- MEASUREMENT_PARAMETERS: Postemergence, Rate 62 g/ha; scale of 0 to 10, 0 is no effect, 10 is complete control
Numbers only.

{"columns": ["COMPOUND", "Velvetleaf plant response rating"],
 "data": [
  ["CC(C)N(C(=O)n1oc(=O)n(C[Si](C)(C)C)c1=O)c1ccc(Cl)cc1 [Compound 548]", 0],
  ["CC(C)N(C(=O)n1oc(=O)n(CCC2OCCCO2)c1=O)c1ccc(Cl)cc1 [Compound 532]", 0],
  ["COCCOCn1c(=O)on(C(=O)N(c2ccc(Cl)cc2)C(C)C)c1=O [Compound 535]", 0],
  ["CC(C)N(C(=O)n1oc(=O)n(CCCF)c1=O)c1ccc(F)cc1F [Compound 500]", 4]
]}

Request - read-out Velvetleaf plant response rating | tested on velvetleaf | compound CCC=CCn1c(=O)on(C(=O)N(c2ccc(F)cc2F)C(C)C)c1=O [Compound 523] 0
